Target: T1, p19 (Carnation Italian ringspot virus (CIRV), UniProt Q66104 1-172)
T1 sequence: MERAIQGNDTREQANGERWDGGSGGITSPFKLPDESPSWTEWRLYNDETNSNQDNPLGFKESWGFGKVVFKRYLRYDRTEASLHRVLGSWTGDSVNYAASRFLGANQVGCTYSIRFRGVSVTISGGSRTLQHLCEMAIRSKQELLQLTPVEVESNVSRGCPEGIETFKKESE
Test: EMSA
Details: protein: recombinant; tags: GST (pGEX-6P-1) removed by PreScission protease; chain copies: 2; label: 5'-32P; miRNA duplex with mismatches, 3' overhangs
measurement-name: pKd
Scale: negative log10 of molar concentration, which is what pKd denotes.

// NbmiR168a,b,c (dsRNA, 5' phosphate on both strands) RNA 1: UCGCUUGGUGCAGGUCGGGAC RNA 2: CCCGCCUUGCAUCAACUGAAU : pKd value = 8.18

// NbmiR162a (Table 1 name) (dsRNA, 5' phosphate on both strands) RNA 1: UCGAUAAACCUCUGCAUCCAG RNA 2: GGAGGCAGCGGUUUAUCGAUC : pKd value = 9.85

// AtmiR168b (dsRNA, 5' phosphate on both strands) RNA 1: UCGCUUGGUGCAGGUCGGGAA RNA 2: CCCGUCUUGUAUCAACUGAAU : pKd value = 8.32
